# Test system: HCI-019 (organoid from a triple-negative breast cancer xenograft)
# assay-notes: CTG-3D luminescence at 96 h relative to day-0 seeding control (ratio to day 0); higher = more growth / less cytotoxicity; PDxO 3D drug screen, 96 h, CTG-3D normalised to day-0 seeding control.
# recorded-conditions: 625 fM; days in culture: 110
quantity-measured: CTG-3D luminescence at 96 h

Examples with their reported CTG-3D luminescence at 96 h follow.
CC1(C)CCC(c2ccc(Cl)cc2)=C(CN2CCN(c3ccc(C(=O)NS(=O)(=O)c4ccc(N[C@H](CCN5CCOCC5)CSc5ccccc5)c(S(=O)(=O)C(F)(F)F)c4)cc3)CC2)C1; 2.31
NC(=O)c1cccc2cn(-c3ccc([C@@H]4CCCNC4)cc3)nc12; 2.72
Nc1ccn([C@@H]2O[C@H](CO)[C@@H](O)C2(F)F)c(=O)n1; 2.3

I have 6 molecules here; please give me CTG-3D luminescence at 96 h for each one.
1. CC(C)n1nc(-c2ccc3oc(N)nc3c2)c2c(N)ncnc21
2. Cc1cc(Nc2ncc(Cl)c(Nc3ccccc3S(=O)(=O)C(C)C)n2)c(OC(C)C)cc1C1CCNCC1
3. CC(=O)O[C@H]1C(=O)[C@@]2(C)[C@H]([C@H](OC(=O)c3ccccc3)[C@]3(O)C[C@H](OC(=O)[C@H](O)[C@@H](NC(=O)c4ccccc4)c4ccccc4)C(C)=C1C3(C)C)[C@]1(OC(C)=O)CO[C@@H]1C[C@@H]2O
4. CN(Cc1cnc2nc(N)nc(N)c2n1)c1ccc(C(=O)N[C@@H](CCC(=O)O)C(=O)O)cc1 [methotrexate]
5. C[C@@H]1COCCN1c1cc(C2([S@](C)(=N)=O)CC2)nc(-c2cc[nH]c3nccc2-3)n1
6. C[C@]12CC[C@@H]3c4ccc(O)cc4C[C@@H](CCCCCCCCC[S+]([O-])CCCC(F)(F)C(F)(F)F)[C@H]3[C@@H]1CC[C@@H]2O (stereo partly specified)

-- reply
1. 2.26
2. 2.49
3. 2.39
4. 2.13
5. 1.62
6. 1.57

I have 2 molecules here; please give me CTG-3D luminescence at 96 h for each one.
1. CCN(c1cc(C#CCN2CCOCC2)cc(C(=O)NCc2c(C)cc(C)[nH]c2=O)c1C)[C@H]1CC[C@H](N(C)CCOC)CC1
2. O=C(O)C1(C(=O)O)CCC1.[NH2-].[NH2-].[Pt+2]

-- reply
1: 2.28; 2: 1.97

----------
# System: HCI-027 (organoid from a triple-negative breast cancer xenograft)
# assay-notes: CTG-3D luminescence at 96 h relative to day-0 seeding control (ratio to day 0); higher = more growth / less cytotoxicity; PDxO 3D drug screen, 96 h, CTG-3D normalised to day-0 seeding control.
# recorded-conditions: 10 µM; days in culture: 201
quantity-measured: CTG-3D luminescence at 96 h
Numbers only.

I have 3 molecules here; please give me CTG-3D luminescence at 96 h for each one.
1. NC(=O)c1cccc2cn(-c3ccc([C@@H]4CCCNC4)cc3)nc12 [niraparib]
2. NC1(C(=O)N[C@@H](CCO)c2ccc(Cl)cc2)CCN(c2nc[nH]c3nccc2-3)CC1 [capivasertib]
3. O=C(O)C1(C(=O)O)CCC1.[NH2-].[NH2-].[Pt+2] [carboplatin]

-- reply
1: 0.457; 2: 0.976; 3: 1.53

----------
# Test system: HCI-015 (organoid from a triple-negative breast cancer xenograft)
# assay-notes: CTG-3D luminescence at 96 h relative to day-0 seeding control (ratio to day 0); higher = more growth / less cytotoxicity; PDxO 3D drug screen, 96 h, CTG-3D normalised to day-0 seeding control.
# recorded-conditions: 1 µM; days in culture: 191
quantity-measured: CTG-3D luminescence at 96 h
One number for each entry.

O=C(O)C1(C(=O)O)CCC1.[NH2-].[NH2-].[Pt+2] [carboplatin]; 1.4
CCc1c2c(nc3ccc(O)cc13)-c1cc3c(c(=O)n1C2)COC(=O)[C@]3(O)CC [SN-38]; 0.0635
Nc1ccn([C@@H]2O[C@H](CO)[C@@H](O)C2(F)F)c(=O)n1 [gemcitabine]; 0.114

-- ask Returns the measured CTG-3D luminescence at 96 h for the input compound. Input: "CCN(c1cc(C#CCN2CCOCC2)cc(C(=O)NCc2c(C)cc(C)[nH]c2=O)c1C)[C@H]1CC[C@H](N(C)CCOC)CC1"
-- reply 2.09

Where do the numbers come from? From the supplement of paper PMC8882468.
